PROTOCOL SUMMARY: Cmax in cancer patient at 10 mg for 60 mins treated 1/1 cycle/day
Type: ADME, organism-based
Parameters: dose 10 mg, dosed compound name LY2090314
REPORTED CONDITIONS: human, in vivo
METRIC: Cmax (ng/mL)
Response body: numeric value in ng/mL, unit text excluded.

Specify Cmax for O=C1NC(=O)C(c2cnc3ccccn23)=C1c1cn2c3c(cc(F)cc13)CN(C(=O)N1CCCCC1)CC2 and stop.
122

---

PROTOCOL SUMMARY: Half life in cancer patient at 10 mg for 60 mins treated 2/1 cycle/day
Assay type: ADME, organism-based
Set-up: dosed compound name LY2090314
REPORTED CONDITIONS: human, in vivo
METRIC: half-life

Read off the recorded half-life for O=C1NC(=O)C(c2cnc3ccccn23)=C1c1cn2c3c(cc(F)cc13)CN(C(=O)N1CCCCC1)CC2
2.44 h
